pKi: recorded values
tested-system: HCV NS3/NS4a serine protease (Hepatitis C virus genotype 1b, UniProt P26663)
Construct: amino terminus of the NS3 protease domain (amino acids 3-181) with a tetrapeptide linker; made in house; host or cells: E. coli
Sequence (P26663 1013-1207, looked up, natural form): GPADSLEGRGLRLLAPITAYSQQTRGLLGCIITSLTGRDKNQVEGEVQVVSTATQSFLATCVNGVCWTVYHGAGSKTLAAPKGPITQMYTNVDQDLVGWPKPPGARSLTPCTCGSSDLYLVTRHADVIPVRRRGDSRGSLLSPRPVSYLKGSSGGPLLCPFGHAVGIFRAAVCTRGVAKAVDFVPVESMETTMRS
protocol-notes: Spectrophotometric assay for HCV protease inhibitory activity (chromogenic ester substrates)
Type: biochemical, hepatitis C virus (strain 1b)
measurement-setup: Ki, Table 3; rating; single chain NS4A21-32-GSGS-NS3 3-181 protease, 30° C., pH 6.5
pKi: −log10 of the molar value.

Record excerpt, results attached:
>  <smiles-string>
CN(C[C@@H](NC(=O)N[C@H](C(=O)N1C[C@H]2[C@@H]([C@H]1C(=O)N[C@@H](CC(F)F)C(=O)NCCc1ccc(Cl)cc1)C2(C)C)C(C)(C)C)C(C)(C)C)S(C)(=O)=O

>  <pKi>
> 7.00

$$$$
>  <smiles-string>
CN(C[C@@H](NC(=O)N[C@H](C(=O)N1C[C@H]2[C@@H]([C@H]1C(=O)N[C@@H](CC(F)F)C(=O)NCCc1ccc(-c3ccccc3)cc1)C2(C)C)C(C)(C)C)C(C)(C)C)S(C)(=O)=O

>  <pKi>
> 7.00

$$$$

Task: Look up pKi for this compound: CN(C[C@@H](NC(=O)N[C@H](C(=O)N1C[C@H]2[C@@H]([C@H]1C(=O)N[C@@H](CC(F)F)C(=O)NCc1ccccn1)C2(C)C)C(C)(C)C)C(C)(C)C)S(C)(=O)=O
Output: < 6.30
